# Test system: 926638-142-R-J1-PDC complex spheroid viability
# experimentSummary: Anticancer human tumor 926638-142-R-J1-PDC patient-derived endometrial carcinoma cell line growth inhibition [POLQ]
# conditionLabel: second compound 0.0316 µM; first compound 1 µM; active compounds read low
Decide using viability, T/C alone. Strictly below 90%: 1. Equal to or above 90%: -1.

molecule	group
O=c1[nH]cc(F)c(=O)[nH]1 + Cc1cccc(N(C)C(=O)C2C(O)CCN2c2nc(C)cc(C(F)(F)F)c2C#N)c1	-1
CC(C)n1c(=O)n(C)c2cnc3cc(F)c(-c4ccc(OCCCN5CCCCC5)nc4)cc3c21 + Nc1ccc(C#CCN(C(=O)Cc2ncc(C(F)(F)F)cc2C(F)(F)F)c2ccc(F)cc2)nn1	-1
O=C(c1cc(Cc2n[nH]c(=O)c3ccccc23)ccc1F)N1CCN(C(=O)C2CC2)CC1 + Nc1ccc(C#CCN(C(=O)Cc2ncc(C(F)(F)F)cc2C(F)(F)F)c2ccc(F)cc2)nn1	-1
CC(C)n1c(=O)n(C)c2cnc3cc(F)c(-c4ccc(OCCCN5CCCCC5)nc4)cc3c21 + COC1C(OC(N)=O)C(O)C(Oc2ccc3c(O)c(NC(=O)c4ccc(O)c(CC=C(C)C)c4)c(=O)oc3c2C)OC1(C)C	-1

Consider the additional molecule presented here.
Prompt: Answer whether the molecule COc1ccc([C@@H](O)c2cc(-c3ncnc4cc(N5CCOCC5)ccc34)c(F)cc2Cl)nn1 + COC1C(OC(N)=O)C(O)C(Oc2ccc3c(O)c(NC(=O)c4ccc(O)c(CC=C(C)C)c4)c(=O)oc3c2C)OC1(C)C has viability, T/C strictly less than 90%
Response: 1

* * *

# Tested on: 926638-142-R-J1-PDC complex spheroid viability
# experimentSummary: Anticancer human tumor 926638-142-R-J1-PDC cell line growth inhibition [POLQ];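 further: spheroids exposed to drugs for one week before readout; percent viability relative to DMSO vehicle control wells set as 100%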
# conditionLabel: second compound 3.16 µM; first compound 0.1 µM; active compounds read low
Quick rule for you: viability, T/C under 80% gets class 1, anything else gets class 0.

compound	group
C=CCn1c(=O)c2cnc(Nc3ccc(N4CCN(C)CC4)cc3)nc2n1-c1cccc(C(C)(C)O)n1 + Nc1ccc(C#CCN(C(=O)Cc2ncc(C(F)(F)F)cc2C(F)(F)F)c2ccc(F)cc2)nn1	class 0
Nc1ccn(C2OC(CO)C(O)C2(F)F)c(=O)n1 (stereo not given) + Nc1ccc(C#CCN(C(=O)Cc2ncc(C(F)(F)F)cc2C(F)(F)F)c2ccc(F)cc2)nn1	class 1
O=C(Nc1ccc(O)c(NS(=O)(=O)c2ccc(F)cc2)c1)c1ccc(-c2ccccc2)cc1 + COC1C(OC(N)=O)C(O)C(Oc2ccc3c(O)c(NC(=O)c4ccc(O)c(CC=C(C)C)c4)c(=O)oc3c2C)OC1(C)C	class 0
Nc1ccn(C2OC(CO)C(O)C2(F)F)c(=O)n1 (stereo not given) + COC1C(OC(N)=O)C(O)C(Oc2ccc3c(O)c(NC(=O)c4ccc(O)c(CC=C(C)C)c4)c(=O)oc3c2C)OC1(C)C	class 1

With those in mind, consider the next compound.
Prompt: Could you please tell me whether viability, T/C recorded for COc1cc(C2c3cc4c(cc3C(OC3OC5COC(C)OC5C(O)C3O)C3COC(=O)C23)OCO4)cc(OC)c1O (stereo not given) + COC1C(OC(N)=O)C(O)C(Oc2ccc3c(O)c(NC(=O)c4ccc(O)c(CC=C(C)C)c4)c(=O)oc3c2C)OC1(C)C is less than 80%?
Response: class 0
